Sourced from the supplement of paper PMC10307832

Test system: NCI-H596
Assay: relative viability (nuclei count vs DMSO), 5 days (fraction); higher = more cells survive
Details: first compound 0.1581 µM
Strictly below 0.5 in relative viability: MET. Otherwise: NOT MET.

Prompt line: Confirm or reject: relative viability of Nc1ccn([C@@H]2O[C@H](CO)[C@@H](O)[C@@H]2O)c(=O)n1 [Cytarabine] + Nc1nc2[nH]cc(CCc3ccc(C(=O)N[C@@H](CCC(=O)O)C(=O)O)cc3)c2c(=O)[nH]1 [Pemetrexed] (partner 0.2 µM) lies strictly below 0.5
Response line: MET

Prompt line: Quick check: relative viability of COc1cc2nccc(Oc3ccc(NC(=O)Nc4cc(C)on4)c(Cl)c3)c2cc1OC [Tivozanib] + C[C@]1(O)C[C@@H](c2nc(-c3ccc4ccc(-c5ccccc5)nc4c3)c3c(N)nccn32)C1 [Linsitinib] (partner 1 µM) under 0.5?
Response line: NOT MET

Prompt line: Determine if COc1cc2nccc(Oc3ccc(NC(=O)Nc4cc(C)on4)c(Cl)c3)c2cc1OC [Tivozanib] + CC(C)C[C@H](NC(=O)[C@H](Cc1ccccc1)NC(=O)c1cnccn1)B(O)O [Bortezomib] (partner 0.002 µM) shows relative viability strictly lower than 0.5.
Response line: NOT MET

Prompt line: Please state whether relative viability is below 0.5 for Nc1ccn([C@@H]2O[C@H](CO)[C@@H](O)[C@@H]2O)c(=O)n1 [Cytarabine] + COc1cccc2cc(-c3nc([C@H]4CC[C@H](C(=O)O)CC4)n4ncnc(N)c34)[nH]c12 [OSI-027] (partner 0.5 µM)
Response line: MET

Prompt line: Record Nc1ccn([C@@H]2O[C@H](CO)[C@@H](O)[C@@H]2O)c(=O)n1 [Cytarabine] + O=C(c1cc(Cc2n[nH]c(=O)c3ccccc23)ccc1F)N1CCN(C(=O)C2CC2)CC1 [Olaparib] (partner 8 µM) : is its relative viability strictly below 0.5?
Response line: NOT MET

Prompt line: Please indicate whether the reported relative viability of Nc1ccn([C@@H]2O[C@H](CO)[C@@H](O)[C@@H]2O)c(=O)n1 [Cytarabine] + CCNC(=O)c1noc(-c2cc(C(C)C)c(O)cc2O)c1-c1ccc(CN2CCOCC2)cc1 [Luminespib] (partner 0.01 µM) is strictly below 0.5.
Response line: NOT MET

Prompt line: Threshold test, relative viability < 0.5: Nc1ccn([C@@H]2O[C@H](CO)[C@@H](O)[C@@H]2O)c(=O)n1 [Cytarabine] + NC(=O)Nc1cc(-c2cccc(F)c2)sc1C(=O)N[C@H]1CCCNC1 [AZD7762] (partner 0.2 µM)
Response line: MET

Prompt line: In the record for Nc1ccn([C@@H]2O[C@H](CO)[C@@H](O)[C@@H]2O)c(=O)n1 [Cytarabine] + O=C(CCCCCCC(=O)Nc1ccccc1)NO [Vorinostat] (partner 1 µM) , is relative viability less than 0.5?
Response line: MET

Prompt line: Please state whether relative viability is below 0.5 for Nc1ccn([C@@H]2O[C@H](CO)[C@@H](O)[C@@H]2O)c(=O)n1 [Cytarabine] + Cc1nc(Nc2ncc(C(=O)Nc3c(C)cccc3Cl)s2)cc(N2CCN(CCO)CC2)n1 [Dasatinib] (partner 0.075 µM)
Response line: MET

Prompt line: Confirm or reject: relative viability of Nc1ccn([C@@H]2O[C@H](CO)[C@@H](O)[C@@H]2O)c(=O)n1 [Cytarabine] + COc1cc2c(Oc3ccc(NC(=O)C4(C(=O)Nc5ccc(F)cc5)CC4)cc3F)ccnc2cc1OCCCN1CCOCC1 [Foretinib] (partner 0.25 µM) lies strictly below 0.5
Response line: MET

---

System: NCI-H322M
Test: relative viability (nuclei count vs DMSO), 5 days (fraction); higher = more cells survive
Conditions: first compound 0.8 µM
READOUT: relative viability
Write the value as a bare number.

Prompt line: Tell me measured relative viability for Cc1cnc(-c2cnc(NCCNc3ccc(C#N)cn3)nc2-c2ccc(Cl)cc2Cl)[nH]1 + N=C(N)NC(=N)NCCc1ccccc1 [Phenformin] (partner 250 µM) please.
Response line: 0.753

Prompt line: Note relative viability for the compound shown: O=c1[nH]c2ccccc2n1C1CCN(CCCC(c2ccc(F)cc2)c2ccc(F)cc2)CC1 [Pimozide] + C[C@@H](Oc1cc(-c2cnn(C3CCNCC3)c2)cnc1N)c1c(Cl)ccc(F)c1Cl [Crizotinib] (partner 1 µM)
Response line: 0.846

Prompt line: Give recorded relative viability. Cc1cnc(-c2cnc(NCCNc3ccc(C#N)cn3)nc2-c2ccc(Cl)cc2Cl)[nH]1 + COc1cc2c(Oc3ccc(NC(=O)C4(C(=O)Nc5ccc(F)cc5)CC4)cc3F)ccnc2cc1OCCCN1CCOCC1 [Foretinib] (partner 0.25 µM)
Response line: 1

Prompt line: State, in one line, measured relative viability of O=c1[nH]c2ccccc2n1C1CCN(CCCC(c2ccc(F)cc2)c2ccc(F)cc2)CC1 [Pimozide] + Cc1nc(NC(=O)N2CCC[C@H]2C(N)=O)sc1-c1ccnc(C(C)(C)C(F)(F)F)c1 [Alpelisib] (partner 2 µM)
Response line: 0.819

Prompt line: # return recorded relative viability for input Cc1cnc(-c2cnc(NCCNc3ccc(C#N)cn3)nc2-c2ccc(Cl)cc2Cl)[nH]1 + CC(=O)Nc1cccc(-n2c(=O)n(C3CC3)c(=O)c3c(Nc4ccc(I)cc4F)n(C)c(=O)c(C)c32)c1 [Trametinib] (partner 0.02 µM)
Response line: 0.468

Prompt line: Give the measured relative viability for Cc1cnc(-c2cnc(NCCNc3ccc(C#N)cn3)nc2-c2ccc(Cl)cc2Cl)[nH]1 + CC(C)C[C@H](NC(=O)[C@H](Cc1ccccc1)NC(=O)c1cnccn1)B(O)O [Bortezomib] (partner 0.002 µM)
Response line: 1.22

Prompt line: Tell us which relative viability value is on record for Cc1cnc(-c2cnc(NCCNc3ccc(C#N)cn3)nc2-c2ccc(Cl)cc2Cl)[nH]1 + CS(=O)(=O)CCNCc1ccc(-c2ccc3ncnc(Nc4ccc(OCc5cccc(F)c5)c(Cl)c4)c3c2)o1 [Lapatinib] (partner 2 µM)
Response line: 0.594

Prompt line: Find the measured relative viability of O=c1[nH]c2ccccc2n1C1CCN(CCCC(c2ccc(F)cc2)c2ccc(F)cc2)CC1 [Pimozide] + Nc1ncn([C@H]2C[C@H](O)[C@@H](CO)O2)c(=O)n1 [Decitabine] (partner 2 µM) and report it.
Response line: 0.719

Prompt line: Specify measured relative viability for O=c1[nH]c2ccccc2n1C1CCN(CCCC(c2ccc(F)cc2)c2ccc(F)cc2)CC1 [Pimozide] + NC(=O)Nc1cc(-c2cccc(F)c2)sc1C(=O)N[C@H]1CCCNC1 [AZD7762] (partner 0.2 µM) .
Response line: 0.58

Prompt line: Tell me relative viability reported for O=c1[nH]c2ccccc2n1C1CCN(CCCC(c2ccc(F)cc2)c2ccc(F)cc2)CC1 [Pimozide] + C[C@]1(O)C[C@@H](c2nc(-c3ccc4ccc(-c5ccccc5)nc4c3)c3c(N)nccn32)C1 [Linsitinib] (partner 1 µM)
Response line: 0.79

Prompt line: Identify measured relative viability associated with Cc1cnc(-c2cnc(NCCNc3ccc(C#N)cn3)nc2-c2ccc(Cl)cc2Cl)[nH]1 + CC(=O)c1c(C)c2cnc(Nc3ccc(N4CCNCC4)cn3)nc2n(C2CCCC2)c1=O [Palbociclib] (partner 0.5 µM)
Response line: 0.477

Prompt line: Read off the recorded relative viability for O=c1[nH]c2ccccc2n1C1CCN(CCCC(c2ccc(F)cc2)c2ccc(F)cc2)CC1 [Pimozide] + COc1cccc2cc(-c3nc([C@H]4CC[C@H](C(=O)O)CC4)n4ncnc(N)c34)[nH]c12 [OSI-027] (partner 0.5 µM)
Response line: 0.508

Prompt line: Item Cc1cnc(-c2cnc(NCCNc3ccc(C#N)cn3)nc2-c2ccc(Cl)cc2Cl)[nH]1 + CS(=O)(=O)N1CCN(Cc2cc3nc(-c4cccc5[nH]ncc45)nc(N4CCOCC4)c3s2)CC1 [Pictilisib] (partner 1 µM) : provide relative viability
Response line: 0.413

Prompt line: Give reported relative viability value for O=c1[nH]c2ccccc2n1C1CCN(CCCC(c2ccc(F)cc2)c2ccc(F)cc2)CC1 [Pimozide] + Cc1cc(Nc2cc(N3CCN(C)CC3)nc(Sc3ccc(NC(=O)C4CC4)cc3)n2)n[nH]1 [Tozasertib] (partner 0.1 µM)
Response line: 0.523

---

Test system: LU99A
Experiment: relative viability (nuclei count vs DMSO), 5 days (fraction); higher = more cells survive
Settings: first compound 0.08 µM
Response field label takes condition met when relative viability is strictly below 0.4 and condition not met in all other cases.

Prompt line: Record O=c1[nH]c2ccccc2n1C1CCN(CCCC(c2ccc(F)cc2)c2ccc(F)cc2)CC1 [Pimozide] + Nc1nc2[nH]cc(CCc3ccc(C(=O)N[C@@H](CCC(=O)O)C(=O)O)cc3)c2c(=O)[nH]1 [Pemetrexed] (partner 0.2 µM) : is its relative viability strictly below 0.4?
Response line: condition met

Prompt line: Confirm or reject: relative viability of O=c1[nH]c2ccccc2n1C1CCN(CCCC(c2ccc(F)cc2)c2ccc(F)cc2)CC1 [Pimozide] + Nc1ncn([C@H]2C[C@H](O)[C@@H](CO)O2)c(=O)n1 [Decitabine] (partner 2 µM) lies strictly below 0.4
Response line: condition not met

Prompt line: Lab log: compare recorded relative viability with 0.4; is it strictly lower for O=c1[nH]c2ccccc2n1C1CCN(CCCC(c2ccc(F)cc2)c2ccc(F)cc2)CC1 [Pimozide] + CC(C)C[C@H](NC(=O)[C@H](Cc1ccccc1)NC(=O)c1cnccn1)B(O)O [Bortezomib] (partner 0.002 µM) ?
Response line: condition not met

Prompt line: Answer whether the compound Cc1cnc(-c2cnc(NCCNc3ccc(C#N)cn3)nc2-c2ccc(Cl)cc2Cl)[nH]1 + Nc1nc2[nH]cc(CCc3ccc(C(=O)N[C@@H](CCC(=O)O)C(=O)O)cc3)c2c(=O)[nH]1 [Pemetrexed] (partner 0.2 µM) has relative viability strictly less than 0.4
Response line: condition met

Prompt line: Regarding Cc1cnc(-c2cnc(NCCNc3ccc(C#N)cn3)nc2-c2ccc(Cl)cc2Cl)[nH]1 + CC(=O)c1c(C)c2cnc(Nc3ccc(N4CCNCC4)cn3)nc2n(C2CCCC2)c1=O [Palbociclib] (partner 0.5 µM) , kindly confirm whether its relative viability is beneath 0.4.
Response line: condition met
